Origin of measurements: ChEMBL document CHEMBL2396576

# system: Serine/threonine-protein kinase pim-2 (Homo sapiens)
# test method notes: Inhibition of human PIM2 assessed as residual activity using RSRHSSYPAGT as substrate at 10 uM after 30 mins
value kind: Activity (%)
Reply numerically in %, unit not repeated.

Query: Recorded Activity of COc1ccc2[nH]c3c(N)cc4cn[nH]c4c3c2c1 , please.
Response: 70

Query: Entry under review: Nc1cc2cn[nH]c2c2c1[nH]c1ccc(Cl)cc12 . Reported Activity?
Response: 79

Query: What value of Activity has been reported for the following compound? COc1ccc2[nH]c3c(N)cc4[nH]ncc4c3c2c1
Response: 54

Query: Request the reported Activity associated with O=[N+]([O-])c1cc2[nH]ncc2c2c1[nH]c1ccccc12
Response: 38

Query: Fill blank: measured Activity of the compound Nc1cc2[nH]ncc2c2c1[nH]c1ccc(Cl)cc12 is ____.
Response: 34

Query: What value of Activity has been recorded for this entry: Nc1cc2cn[nH]c2c2c1[nH]c1ccccc12
Response: 78

Query: Which Activity reading was recorded for the compound Nc1cc2[nH]ncc2c2c1[nH]c1ccccc12 ?
Response: 71

----------
# system: Serine/threonine-protein kinase pim-3 (Homo sapiens)
# test method notes: Inhibition of human PIM3 assessed as residual activity using RSRHSSYPAGT as substrate at 1 uM after 30 mins
Rule: Activity under 30% gives rule not met, otherwise rule met.

Query: Assess whether reported Activity for O=[N+]([O-])c1cc2cn[nH]c2c2c1[nH]c1ccccc12 sits at 30% or higher.
Response: rule not met

Query: Evaluate Nc1cc2cn[nH]c2c2c1[nH]c1ccccc12 : Activity at minimum 30%?
Response: rule met

Query: Textbook exercise: given the entry COc1ccc2[nH]c3c([N+](=O)[O-])cc4[nH]ncc4c3c2c1 , state whether its Activity is greater than or equal to 30%.
Response: rule not met

Query: Test whether the compound Nc1cc2cn[nH]c2c2c1[nH]c1ccc(Cl)cc12 records Activity of 30% or higher.
Response: rule met

Query: Determine whether measured Activity meets or exceeds 30% for COc1ccc2[nH]c3c(N)cc4[nH]ncc4c3c2c1
Response: rule met

Query: Hello, I need to know if O=[N+]([O-])c1cc2cn[nH]c2c2c1[nH]c1ccc(Cl)cc12 has measured Activity not below 30%. Thanks!
Response: rule met

Query: Evaluate O=[N+]([O-])c1cc2[nH]ncc2c2c1[nH]c1ccccc12 : Activity at minimum 30%?
Response: rule not met

Query: Kindly determine if Activity recorded for COc1ccc2[nH]c3c(N)cc4cn[nH]c4c3c2c1 is above or exactly 30%.
Response: rule met

Query: Determine whether this compound has Activity no lower than 30%: O=[N+]([O-])c1cc2[nH]ncc2c2c1[nH]c1ccc(Cl)cc12
Response: rule not met

Query: Check this compound for Activity at or above 30%: Nc1cc2[nH]ncc2c2c1[nH]c1ccc(Cl)cc12
Response: rule not met

Query: Please indicate if the recorded Activity for Nc1cc2[nH]ncc2c2c1[nH]c1ccccc12 meets or exceeds 30%.
Response: rule met

Query: Determine whether measured Activity meets or exceeds 30% for COc1ccc2[nH]c3c([N+](=O)[O-])cc4cn[nH]c4c3c2c1
Response: rule not met

----------
# system: Serine/threonine-protein kinase pim-3 (Homo sapiens, UniProt Q86V86)
value kind: pIC50
The read-out pIC50 is expressed as -log10 of concentration in moles per litre.

Query: Which measured pIC50 value corresponds to COc1ccc2[nH]c3c([N+](=O)[O-])cc4n[nH]cc4c3c2c1 ?
Response: 6.96

Query: What value of pIC50 has been recorded for this entry: COc1ccc2[nH]c3c(N)cc4cn[nH]c4c3c2c1
Response: 6.15

Query: Dear colleague, I am looking for the recorded pIC50 of the following compound: COc1ccc2[nH]c3c(N)cc4n[nH]cc4c3c2c1
Response: 6.22

Query: Entry under review: O=[N+]([O-])c1cc2c[nH]nc2c2c1[nH]c1ccccc12 . Reported pIC50?
Response: 6.68

Query: What value of measured pIC50 is listed for O=[N+]([O-])c1cc2n[nH]cc2c2c1[nH]c1ccccc12 ?
Response: 7.00

Query: // query pIC50 value for entry Nc1cc2[nH]ncc2c2c1[nH]c1ccc(Cl)cc12
Response: 6.96

----------
# system: Serine/threonine-protein kinase pim-1 (Homo sapiens, UniProt P11309)
# Sequence (P11309 whole entry, looked up): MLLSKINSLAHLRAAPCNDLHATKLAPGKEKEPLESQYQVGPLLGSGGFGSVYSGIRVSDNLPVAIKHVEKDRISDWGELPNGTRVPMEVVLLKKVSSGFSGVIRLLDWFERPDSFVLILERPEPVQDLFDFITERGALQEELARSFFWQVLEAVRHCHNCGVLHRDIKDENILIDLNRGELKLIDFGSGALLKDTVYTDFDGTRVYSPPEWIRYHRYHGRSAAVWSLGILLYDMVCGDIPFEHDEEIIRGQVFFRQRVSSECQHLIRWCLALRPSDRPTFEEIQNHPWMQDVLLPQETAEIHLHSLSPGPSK
# test method notes: Inhibition of human PIM1 assessed as residual activity using RSRHSSYPAGT as substrate at 1 uM after 30 mins
Threshold check on Activity: strictly below 60% is Fulfilled; on or above 60% is Not fulfilled.

Query: Find out if reported Activity for O=[N+]([O-])c1cc2cn[nH]c2c2c1[nH]c1ccc(Cl)cc12 is less than 60%
Response: Not fulfilled

Query: Please state whether Activity is below 60% for Nc1cc2[nH]ncc2c2c1[nH]c1ccc(Cl)cc12
Response: Fulfilled

Query: Consider the compound O=[N+]([O-])c1cc2[nH]ncc2c2c1[nH]c1ccccc12 . Is its Activity strictly less than 60%?
Response: Fulfilled

Query: Would you kindly verify if Activity of Nc1cc2cn[nH]c2c2c1[nH]c1ccc(Cl)cc12 is strictly less than 60%?
Response: Not fulfilled

Query: For this compound, is Activity lower than 60%? Nc1cc2cn[nH]c2c2c1[nH]c1ccccc12
Response: Not fulfilled

Query: I wonder whether COc1ccc2[nH]c3c(N)cc4[nH]ncc4c3c2c1 has Activity below 60%. Can you tell?
Response: Not fulfilled

Query: Check if Activity falls below 60% for COc1ccc2[nH]c3c(N)cc4cn[nH]c4c3c2c1 .
Response: Not fulfilled

Query: For this compound, is Activity lower than 60%? COc1ccc2[nH]c3c([N+](=O)[O-])cc4cn[nH]c4c3c2c1
Response: Fulfilled

Query: # strict comparison: is reported Activity < 60%? input = COc1ccc2[nH]c3c([N+](=O)[O-])cc4[nH]ncc4c3c2c1
Response: Fulfilled

Query: Bench note: check whether O=[N+]([O-])c1cc2cn[nH]c2c2c1[nH]c1ccccc12 shows Activity below 60%
Response: Fulfilled

Query: API: query returns whether the compound falls strictly under 60% in Activity. Query: O=[N+]([O-])c1cc2[nH]ncc2c2c1[nH]c1ccc(Cl)cc12
Response: Fulfilled

----------
Please provide measured Activity for the entries that follow.
# system: Serine/threonine-protein kinase pim-1 (Homo sapiens)
# test method notes: Inhibition of human PIM1 assessed as residual activity using RSRHSSYPAGT as substrate at 10 uM after 30 mins
Record the value in %, omitting the unit from your answer.

Query: Recorded Activity for Nc1cc2[nH]ncc2c2c1[nH]c1ccc(Cl)cc12 , please?
Response: 8

Query: Bench note: what Activity did COc1ccc2[nH]c3c(N)cc4[nH]ncc4c3c2c1 show?
Response: 23

Query: Please look up its Activity: COc1ccc2[nH]c3c(N)cc4cn[nH]c4c3c2c1
Response: 43

Query: Query (compound): O=[N+]([O-])c1cc2[nH]ncc2c2c1[nH]c1ccc(Cl)cc12 ; field requested: Activity
Response: 39

Query: Please report the recorded Activity for O=[N+]([O-])c1cc2cn[nH]c2c2c1[nH]c1ccccc12 .
Response: 26

Query: Param item = O=[N+]([O-])c1cc2cn[nH]c2c2c1[nH]c1ccc(Cl)cc12 ; retrieve measured Activity.
Response: 60

Query: Data request, read-out Activity, for O=[N+]([O-])c1cc2[nH]ncc2c2c1[nH]c1ccccc12
Response: 15

----------
# system: Serine/threonine-protein kinase pim-2 (Homo sapiens)
# test method notes: Inhibition of human PIM2 assessed as residual activity using RSRHSSYPAGT as substrate at 1 uM after 30 mins
Please go through the items and note down their Activity.
A complete answer gives the number and then names the unit.

Query: Given the compound COc1ccc2[nH]c3c(N)cc4cn[nH]c4c3c2c1 , what is its reported Activity?
Response: 120%

Query: Quick check: Activity of COc1ccc2[nH]c3c([N+](=O)[O-])cc4cn[nH]c4c3c2c1 ?
Response: 77%

Query: Value lookup for Activity; key = O=[N+]([O-])c1cc2cn[nH]c2c2c1[nH]c1ccc(Cl)cc12
Response: 90%

Query: Return reported Activity; argument: Nc1cc2[nH]ncc2c2c1[nH]c1ccccc12
Response: 96%

Query: Fill in the blank: the reported Activity of Nc1cc2cn[nH]c2c2c1[nH]c1ccccc12 is ____.
Response: 116%
